B1: EEHEE_rd4_0469 (parent)
chain: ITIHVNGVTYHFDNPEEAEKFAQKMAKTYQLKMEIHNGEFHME

Variants of: B1
Experiment: folding stability dG (cDNA display proteolysis); higher = more stable
Conditions: PBS, room temperature
Please note: 1 (yes) applies when folding stability dG is 1 kcal/mol or greater, and 0 (no) applies otherwise.

Reference set, count: 5
ITIHVNMVTYHFDNPEEAEKFAQKMAKTYQLKMEIHNGEFHME :: 1 (yes)
ITIHVNGVTYHFDNPEEAEKFAQKVAKTYQLKMEIHNGEFHME :: 0 (no)
ITIHVNGVTYHFDNPEEAEKFAQKMAKTYQLKMEIHEGEFHME :: 0 (no)
ITIHVNGVTYHFDNPCEAEKFAQKMAKTYQLKMEIHNGEFHME :: 1 (yes)
ITIHVNGVTYHFDNPEEAEKFAQKMAKTYQLKDEIHNGEFHME :: 0 (no)

In: Dear colleague, could you confirm whether ITIHVNGVTYHFDNPEEAEKFAQKMAKTYQLKMEIHNGEFHVE has folding stability dG at or above 1 kcal/mol?
Out: 0 (no)

In: Next up: ITIHVNGVTCHFDNPEEAEKFAQKMAKTYQLKMEIHNGEFHME
Out: 1 (yes)

In: Next up: ITIHVNGVTYHFDNPEEAEKFAQKMAKTYQLRMEIHNGEFHME
Out: 0 (no)

In: Next up: ITIHVNGVTYHFDNPEEAEKFAQKMAKTYQLKMEIHNAEFHME
Out: 0 (no)

In: Next up: ITIHVNGVTYHFDNYEEAEKFAQKMAKTYQLKMEIHNGEFHME
Out: 1 (yes)

In: Next up: ITIHVNGVTYHFDNPEEAEKFAQKMAKTYQLKMEIHNGDFHME
Out: 0 (no)

In: Next up: ITIHHNGVTYHFDNPEEAEKFAQKMAKTYQLKMEIHNGEFHME
Out: 0 (no)
